MEASURED_ON: T1, human CCR8 (human, UniProt P51685 1-355)
T1 construct: the assay field says which; also called hCCR8; huCCR8
ASSAY_NOTES: flow cytometry, CHO-huCCR8.Gna15 cells, relative to rb.Ab5
READOUT_NAME: Relative MFI (ratio)

[[record]]
binder = "hu.Ab5.H7L1 (antibody, human IgG1, kappa, V domains shown) VH: EQQLLESGGGLVQPGGSLRLSCAVSGIDLSTYAMGWVRQAPGKGLEWIGLIHRSGRTYYATWAKGRFTISKDNSKTTVYLQMNSLRAEDTAVYFCTRSYPDYSATASIWGPGTTVTVSS VL: DIQVTQSPSSLSASVGDRVTITCQASENIANALAWYQQKPGKPPKFLIYGASNLASGVPSRFSGSGSGTDFTFTISSLQPEDIATYYCQQAYYGNSFVEGTFGGGTKVEIKR"
reported_value = 0.96


Cited source: patent US20230049152A1
